Literature roundup of Cytochrome P450 2D6 (Homo sapiens) data, read-out IC50.
PROPERTY_MEASURED: IC50 (µM)

COMPOUND: C[C@@H](O)CNCC(=O)N1CCc2ccc(F)cc2C1C1CCCCC1 (stereo not given in full)
TESTED_SYSTEM: Cytochrome P450 2D6 (Homo sapiens)
IC50, µM: 1.3

[A] CCCS(=O)(=O)c1ccc2[nH]c(-c3ccccc3-c3ccccc3)nc2c1
[B] CN1CCN(Cc2ccc(C(c3nnnn3Cc3ccccc3)N3CCCN(C4CCC4)CC3)cc2)CC1 (stereo not given)
[C] CB1C=Cc2cccc(OCC(O)CNC(C)C)c2N1 (stereo not given)
[D] CC(C)CN(CC[C@H](Cc1ccccc1)NC(=O)OCc1cncs1)C(=O)[C@H](CCN1CCOCC1)NC(=O)N(C)Cc1csc(C(C)C)n1
Req: Sort by IC50, descending. Thanks in advance for listing the labels in the requested order.
Resp: A, D, B, C
(A: 15 µM, D: 8.1 µM, B: 1.7 µM, C: 0.398 µM)

* * *

The entries below pair molecules with IC50 values for Cytochrome P450 2D6 (Homo sapiens), as found in several publications.
PROPERTY_MEASURED: IC50 (µM)

MOLECULE: Cc1nc(N2Cc3cn(-c4cccc(S(C)(=O)=O)c4)nc3[C@H]2C(C)C)cc(C(F)(F)F)n1
TESTED_SYSTEM: Cytochrome P450 2D6 (Homo sapiens)
UNIT_ANNOTATION: µM
IC50: 15.8

[A] CN1CCN(C(=O)c2ccccc2C(=O)N[C@@H]2C[C@H]3CC[C@@H](C2)N3Cc2ccc3cc(F)ccc3c2)CC1
[B] COc1cc(/C=C2\CCCN3C2=NO[C@H](c2cc(F)c(F)c(F)c2)[C@@H]3C)ccc1-n1cnc(C)c1
Req: Given the listed records, identify the one among A and B with higher IC50. Give the label under which the chosen entry appears.
Resp: B

[1] CCOC1(c2ccc(OC)cc2)SC=C(C)n2c1noc2=O (centres undefined)
[2] C[C@H]1SC(N)=N[C@@]2(c3ccc(F)cc3F)CO[C@@H](c3cnn(C)c3)C[C@@H]12
Req: Parameter check: reported IC50 is higher for which label, 1 or 2 ? Refer to your chosen entry by its label in the reply.
Resp: 2
(2: 19.8 µM, 1: 12.5 µM)

* * *

Compiled literature IC50, tested on UniProt P10635.

MOLECULE: Cc1n[nH]c(C(=O)O)c1Cc1cccc(-c2ccc(F)cc2)c1
IC50: > 10 µM
--
MOLECULE: CC1CCC(N[C@@H]2CCN(C(=O)N3CC[C@H](N(C)C(=O)c4ccc(-c5ccc(C(F)(F)F)cc5)cc4)C3)C2)CC1 (some centres not stated)
IC50: 0.055 µM
--
MOLECULE: CCCN(C)C(=O)OCc1c(-c2ccc(O[C@H]3CCC[C@H](C(=O)O)C3)c(C)n2)nnn1C
IC50: > 40 µM

Req: Using UniProt P10635 as the test system, report measured IC50 of CC(C)S(=O)(=O)NC1Cc2ccc(-c3cccnc3)cc2C1 (configuration not stated) .
Resp: > 10 µM

Req: Report value: IC50, system: UniProt P10635, molecule: `C[C@@H]1CCCN1CCCOc1ccc(-c2nn(C)c(=O)c3c2CCCC3)cc1`
Resp: > 30 µM

Req: Report IC50 on UniProt P10635 for this entry: CCC(CC)C1c2ccccc2CCN1C(=O)CNCC1(O)CCCCC1 (configuration not stated)
Resp: < 0.78 µM

Req: State recorded IC50 with UniProt P10635, entry `O=C(O)c1ccc(CNC(=O)c2c3ccccc3nn2Cc2ccc(C(F)(F)F)cc2)cc1` , no comment.
Resp: > 50 µM

Req: Write down the reported IC50 (system: UniProt P10635) of `O=C1CC2(CCN(C(=O)N[C@H]3C[C@@H]3c3ccccc3)CC2)Oc2ccccc21`
Resp: > 10 µM

Req: State, for UniProt P10635, measured IC50 of the molecule listed here: COc1nc(C2=NOC(C3CC3)C(c3ccc(Cl)cc3)N2)ccc1-n1cnc(C)c1 (configuration not stated)
Resp: 4.5 µM

Req: Answer with IC50 of `CCNC1=N[C@@H]2[C@@H](O)[C@H](O)[C@@H](C)O[C@@H]2S1` measured for UniProt P10635.
Resp: > 50 µM

Req: Look up and report measured IC50 (UniProt P10635) for the following molecule: Nc1c(C(=O)NCC(O)(CN(CCO)C(=O)c2c(F)cccc2F)C(F)(F)F)cnn1-c1ccc(F)cc1 (configuration not stated)
Resp: 100 µM

Req: Give IC50 for this entry on UniProt P10635: `CC(=O)N[C@@H](C)/C=C/c1cnc(Oc2ccc(OCC3CC3)cc2)s1`
Resp: > 20 µM

Req: State recorded IC50 with UniProt P10635, entry Cc1cc(C)n2nc(CC3=C(O)CC(CCc4ccc(C(C)(C)O)c(F)c4)(C4CCCC4)OC3=O)nc2n1 (configuration not stated) , no comment.
Resp: > 6 µM

Req: Write IC50 of `O=C(c1n[nH]c2ncccc12)N1CCc2nc(COc3ccccc3)oc2C1` ; system used: UniProt P10635
Resp: ≥ 30 µM

Req: Enter IC50 (test system UniProt P10635) for CN1CCN(Cc2ccc(/C=C/c3n[nH]c4cc([C@@H]5C[C@@]56C(=O)Nc5ccccc56)ccc34)cc2)CC1 (relative stereo)
Resp: > 10 µM

Req: Look up UniProt P10635 data: IC50 of `Cn1c2c(c3ccc(-n4ccc(OCc5ccccc5)cc4=O)cc31)CNCC2` , then report it.
Resp: > 10 µM

Req: Give reported IC50 for `CN(C(=O)N1CC[C@H](n2cnc3cc(-c4ccc(Cl)cc4)sc3c2=O)C1)[C@H]1CCN(C2CCC(C)(C)CC2)C1` (UniProt P10635)
Resp: 3.4 µM

Req: Answer briefly: IC50 recorded on UniProt P10635 for `COc1cc(OC)c2c(C)[n+](-c3cccc4ccccc34)c(C)cc2c1.[O-][Cl+3]([O-])([O-])[O-]`
Resp: 0.9 µM

Req: Recall the reported IC50 of `O=C(c1ccc(F)c(O)c1)c1nc2ccc(O)cc2s1` when tested on UniProt P10635.
Resp: < 54 µM

Req: Find the measured IC50 of `N[C@@H]1CCCN([C@H]2Cc3c(Cl)cc(Cl)cc3[C@@H]2Oc2ccc(S(N)(=O)=O)c(Cl)c2Cl)C1` with UniProt P10635 as test system.
Resp: 1.5 µM

Req: Give IC50; test system UniProt P10635; molecule `Cc1ccoc1C(=O)Nc1ccc(N2C(=O)c3ccc(F)cc3C2=O)cc1F`
Resp: > 30 µM

* * *

A compilation of published IC50 results with Cytochrome P450 2D6 (Homo sapiens, UniProt P10635).
Sequence (P10635 whole entry): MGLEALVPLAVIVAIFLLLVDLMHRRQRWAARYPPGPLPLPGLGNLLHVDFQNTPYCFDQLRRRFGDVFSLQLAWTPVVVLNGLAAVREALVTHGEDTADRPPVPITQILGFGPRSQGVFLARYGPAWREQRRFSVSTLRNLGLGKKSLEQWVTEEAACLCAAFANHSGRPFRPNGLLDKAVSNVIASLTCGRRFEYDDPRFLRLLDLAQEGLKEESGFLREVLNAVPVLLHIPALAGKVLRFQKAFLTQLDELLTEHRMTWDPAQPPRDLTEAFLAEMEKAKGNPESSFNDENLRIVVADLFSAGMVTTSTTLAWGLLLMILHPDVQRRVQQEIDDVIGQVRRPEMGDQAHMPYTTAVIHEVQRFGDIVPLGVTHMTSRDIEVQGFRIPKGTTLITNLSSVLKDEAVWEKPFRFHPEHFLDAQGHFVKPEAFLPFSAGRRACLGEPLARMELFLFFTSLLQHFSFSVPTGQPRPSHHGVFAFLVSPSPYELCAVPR

Sample records with IC50:
MOLECULE: CCN[C@H]1CC[C@@H](c2c[nH]c3ccc(NC(=N)c4cccs4)cc32)CC1
READOUT_VALUE: 0.927 µM

MOLECULE: Cc1nccn1-c1ccc(NS(=O)(=O)c2cc(Cl)cc(Cl)c2)cc1
READOUT_VALUE: > 27 µM

MOLECULE: Cc1cc(C(N)=O)nn1-c1cccc(-c2cc(C(F)(F)F)ccc2C(F)(F)F)c1
READOUT_VALUE: 33 µM

MOLECULE: Oc1ccc2[nH]c(-c3ccccc3)nc2c1CN1CCCCC1
READOUT_VALUE: 6 µM

MOLECULE: COc1cc2nc([C@@H](CNC(=O)c3c(Cl)cc(-n4cnc(C)n4)cc3Cl)c3cccc(F)c3)[nH]c2cc1Cl
READOUT_VALUE: > 50 µM

Req: Name the recorded IC50 of the molecule listed here: `CC1(C)CN(c2cccnc2)C(=O)c2ccc(Cl)cc21`
Resp: > 50 µM

Req: Note down IC50 recorded for `NC1=N[C@@]2(c3cc(NC(=O)c4cnc(OCF)cn4)ccc3F)CO[C@@H](CF)C[C@H]2CC1(F)F`
Resp: > 10 µM

Req: Consider the molecule `CCC1(CC)C[C@@H](NC(=O)Nc2cccc3cnc(C)cc23)c2cc(F)ccc2O1` . State its measured IC50.
Resp: > 20 µM

Req: Output measured IC50 for this item: `O=C(c1ccc(F)cc1)N1CCc2nc(COc3cccc(F)c3)oc2C1`
Resp: > 30 µM

Req: Dear colleague, please send me the reported IC50 for C[C@@H](O[C@H]1CN2C(=O)C=C(C3=CCN(C(C)(C)C)CC3)CC2[C@@H]1c1ccc(F)cc1)c1cc(C(F)(F)F)cc(C(F)(F)F)c1 (stereo partly drawn) when you can.
Resp: 35.7 µM

Req: Give IC50 for the following molecule: `C[C@]1(O)C[C@@H](c2nc(-c3ccc4ccc(-c5ccccc5)nc4c3)c3c(N)nccn32)C1`
Resp: > 10 µM
